- assayed-system: Ubiquitin carboxyl-terminal hydrolase isozyme L1 (Homo sapiens)
- test-summary: biochemical concentration-response of UCH-L1 DUB inhibitors, hit verification (AID 1645867)
- particulars: recombinant UCHL1 deubiquitinase activity assay
Active and inactive are the calls of the source. No rule for the calls is given here.
Labels: Yes (active), No (inactive)

compound: O=C(Nc1ccc(F)cc1)N1C[C@@H]2c3nccn3-c3ccccc3[C@@H]2C1
assigned-class: No

compound: CC1OC2CC(O)C1(O)C1=C2C(O)=C(C(N)=O)C(=N)C1=O (stereo not given)
assigned-class: Yes

compound: O=C(NC1CC1)c1ccc(OCC2CCCN(C(=O)c3ccccc3)C2)cc1 (stereo not given)
assigned-class: No

compound: CC(C)(C)n1ncc2c(=O)n(CC(=O)N3CCCc4ccccc43)cnc21
assigned-class: No

compound: CC(C)(NC(=O)C1CCCCC1)c1nc2c(c(C(N)=O)n1)OCCO2
assigned-class: No

----------
- assayed-system: Ubiquitin carboxyl-terminal hydrolase isozyme L1 (Homo sapiens)
- test-summary: biochemical concentration-response of UCH-L1 DUB inhibitors, hit verification (AID 1645867)
- particulars: recombinant UCHL1 deubiquitinase activity assay
Activity calls are given as the source filed them. How the calls were made is not given here.
Labels: active, inactive

compound: COc1ccc(C(=O)COC(=O)c2ccccc2NS(=O)(=O)c2ccc(O)c([N+](=O)[O-])c2)cc1
assayed-system: Ubiquitin carboxyl-terminal hydrolase isozyme L1 (Homo sapiens)
assigned-class: inactive

compound: COc1ccc(C(=O)Nc2nnc(S(=O)(=O)N3CCCc4ccccc43)s2)cc1OC
assayed-system: Ubiquitin carboxyl-terminal hydrolase isozyme L1 (Homo sapiens)
assigned-class: inactive

compound: COc1ccc(OC)c2c(C)cc(N3CC(C)CC(C)C3)nc12 (stereo unspecified)
assayed-system: Ubiquitin carboxyl-terminal hydrolase isozyme L1 (Homo sapiens)
assigned-class: inactive

compound: Cc1ccc2c(c1)c(=O)c(C(=O)c1ccccc1)cn2CC(=O)Nc1ccc2c(c1)OCO2
assayed-system: Ubiquitin carboxyl-terminal hydrolase isozyme L1 (Homo sapiens)
assigned-class: inactive

compound: Cc1nc(C(=O)NC2(O)C(=O)c3ccccc3C2=O)cs1
assayed-system: Ubiquitin carboxyl-terminal hydrolase isozyme L1 (Homo sapiens)
assigned-class: active

compound: Cc1nc(S(=O)(=O)NC[C@@]23CCC[C@H]2N(C)C(=O)CC3)cn1C
assayed-system: Ubiquitin carboxyl-terminal hydrolase isozyme L1 (Homo sapiens)
assigned-class: inactive

compound: O=C(O)C1C(C(=O)Nc2ccccc2)C2(c3ccccc3)C(=O)C1(c1ccccc1)C(c1ccccc1)=C2c1ccccc1 (stereo unspecified)
assayed-system: Ubiquitin carboxyl-terminal hydrolase isozyme L1 (Homo sapiens)
assigned-class: inactive

compound: Cc1ccc(NC(=O)Nc2ccc(C)n(CC(=O)Nc3ccc(C)cc3C)c2=O)cc1
assayed-system: Ubiquitin carboxyl-terminal hydrolase isozyme L1 (Homo sapiens)
assigned-class: inactive

compound: O=C1NC2(CCCc3ccccc32)C(=O)N1Cc1csc(-c2ccccc2)n1 (stereo unspecified)
assayed-system: Ubiquitin carboxyl-terminal hydrolase isozyme L1 (Homo sapiens)
assigned-class: inactive

compound: CCc1ccc(-n2c(C)cc(/C=C3\C(=N)N4N=CSC4=NC3=O)c2C)cc1
assayed-system: Ubiquitin carboxyl-terminal hydrolase isozyme L1 (Homo sapiens)
assigned-class: inactive

compound: O=C(NCC(O)c1ccc([N+](=O)[O-])cc1)c1cccc(S(=O)(=O)N2CCOCC2)c1 (stereo unspecified)
assayed-system: Ubiquitin carboxyl-terminal hydrolase isozyme L1 (Homo sapiens)
assigned-class: inactive

compound: Cc1ccc(NC(=O)c2cc(-c3ccccn3)nc3c(Cl)cccc23)nc1
assayed-system: Ubiquitin carboxyl-terminal hydrolase isozyme L1 (Homo sapiens)
assigned-class: inactive

compound: O=C(COc1ccc(Cl)cc1Cl)Nc1ccccc1-c1nc2ccccc2[nH]1
assayed-system: Ubiquitin carboxyl-terminal hydrolase isozyme L1 (Homo sapiens)
assigned-class: inactive

compound: Cn1cc(NC(=O)Nc2cccc(C(F)(F)F)c2)c2ccccc2c1=O
assayed-system: Ubiquitin carboxyl-terminal hydrolase isozyme L1 (Homo sapiens)
assigned-class: inactive

compound: Cc1ccc(C2CC(=O)c3cnc(NCC4CCCO4)nc3C2)cc1 (stereo unspecified)
assayed-system: Ubiquitin carboxyl-terminal hydrolase isozyme L1 (Homo sapiens)
assigned-class: inactive

compound: O=c1c2cnc(N3CCCCC3)nc2ccn1CCc1ccccc1
assayed-system: Ubiquitin carboxyl-terminal hydrolase isozyme L1 (Homo sapiens)
assigned-class: inactive

compound: CCOc1ccc(-c2ccc3nnc(SCC(=O)Nc4ccc(F)cc4)n3n2)cc1
assayed-system: Ubiquitin carboxyl-terminal hydrolase isozyme L1 (Homo sapiens)
assigned-class: inactive

compound: COc1ccc(Nc2nnc(Cc3ccc(Cl)cc3)c(=O)[nH]2)cc1
assayed-system: Ubiquitin carboxyl-terminal hydrolase isozyme L1 (Homo sapiens)
assigned-class: inactive

compound: CCOc1ccc2c(c1)c(=O)c(C(=O)c1ccc(C)cc1)cn2CC(=O)Nc1ccc(C)cc1
assayed-system: Ubiquitin carboxyl-terminal hydrolase isozyme L1 (Homo sapiens)
assigned-class: inactive

compound: CC(C)NC(=O)Cn1ccn2nc(-c3ccc(Cl)cc3)cc2c1=O
assayed-system: Ubiquitin carboxyl-terminal hydrolase isozyme L1 (Homo sapiens)
assigned-class: inactive

compound: O=C(COc1ccc(N2CC(C(=O)NCc3ccccc3)CC2=O)cc1)Nc1ccc(F)cc1 (stereo unspecified)
assayed-system: Ubiquitin carboxyl-terminal hydrolase isozyme L1 (Homo sapiens)
assigned-class: inactive

----------
- assayed-system: Ubiquitin carboxyl-terminal hydrolase isozyme L1 (Homo sapiens) (UniProt P09936)
- Sequence (P09936 whole entry, looked up): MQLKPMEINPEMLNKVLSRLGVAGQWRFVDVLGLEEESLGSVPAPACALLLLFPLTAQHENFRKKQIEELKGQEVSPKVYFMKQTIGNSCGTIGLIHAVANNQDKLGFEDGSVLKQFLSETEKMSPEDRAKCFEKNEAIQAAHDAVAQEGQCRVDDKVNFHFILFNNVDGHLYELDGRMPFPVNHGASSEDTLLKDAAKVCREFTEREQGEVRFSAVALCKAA
- test-summary: biochemical concentration-response of UCH-L1 DUB inhibitors, hit verification (AID 1645867)
- particulars: recombinant UCHL1 deubiquitinase activity assay
Activity calls are given as the source filed them. How the calls were made is not given here.
Examples of compounds with documented IC50 follow.

compound: O=c1[nH]oc(O)c1-c1ncc(C(F)(F)F)cc1Cl
IC50: > 25 µM (inactive)

compound: CCN(CC)Cc1ccc(-c2nnc(-c3cnc4onc(C)c4c3)o2)o1
IC50: > 25 µM (inactive)

compound: COc1cn(CC(=O)Nc2ccc(Cl)cc2)c(CSc2ccccc2)cc1=O
IC50: > 25 µM (inactive)

compound: Cc1c(Cl)ccc2sc(N3CCN(C(=O)c4ccn(C)n4)CC3)nc12
IC50: > 25 µM (inactive)

compound: CC(Oc1ccc(F)cc1)c1nnc(C2(c3ccc(F)cc3)CCOCC2)o1 (stereo unspecified)
IC50: > 25 µM (inactive)

compound: Cc1ccc(/C=C/C(=O)c2oc3ccc(F)cc3c2C)cc1
IC50: > 25 µM (inactive)

compound: COc1c(C(=O)Nc2nnc(C3CC3)s2)csc1Cl
IC50: > 25 µM (inactive)

compound: N=C1/C(=C/c2cn(Cc3ccccc3F)c3ccccc23)C(=O)N=C2SC(C(F)(F)F)=NN12
IC50: > 25 µM (inactive)

compound: O=C(O)c1c(CNC2CCCCCC2)c2ccccc2n1Cc1ccc(F)cc1
IC50: > 25 µM (inactive)

compound: O=c1c2cc(-c3ccccc3)nn2ccn1Cc1noc(CN2CCCCC2)n1
IC50: > 25 µM (inactive)

compound: Cc1ccc(NC(=O)Nc2ccc(C)n(CC(=O)Nc3cccc(C)c3)c2=O)cc1
IC50: > 25 µM (inactive)

----------
- assayed-system: UniProt:P09936
- test-summary: biochemical concentration-response of UCH-L1 DUB inhibitors, hit verification (AID 1645867)
- particulars: recombinant UCHL1 deubiquitinase activity assay
Activity calls are given as the source filed them. The rule behind the calls is not given here.
Labels: active, inactive

compound: c1ccc(-n2nnc(-c3noc(-c4ccc[nH]4)n3)c2-c2ccncc2)cc1
assayed-system: UniProt:P09936
assigned-class: inactive
//
compound: Cc1ccc(NC(=O)Cn2cc(C(=O)c3ccccc3)c(=O)c3cc(C)ccc32)cc1
assayed-system: UniProt:P09936
assigned-class: inactive
//
compound: O=C(CSc1ccc2nnc(-c3cccc(F)c3)n2n1)N1CCCc2ccccc21
assayed-system: UniProt:P09936
assigned-class: inactive
//
compound: Cc1ccc2[nH]c3c(=O)n(Cc4ccc(N(C)C)cc4)cnc3c2c1
assayed-system: UniProt:P09936
assigned-class: inactive
//
compound: N#Cc1cccc(NC(=O)Nc2cccn(Cc3ccccc3F)c2=O)c1
assayed-system: UniProt:P09936
assigned-class: active
//
compound: CC1=C(C)C(c2c(-c3ccc(C)cc3)[nH]c3ccccc23)N(C(C)(C)C)C1=O (stereo not given)
assayed-system: UniProt:P09936
assigned-class: inactive
//
compound: O=C(NCc1ccc(Br)cc1)c1cc(-c2cccnc2)n[nH]1
assayed-system: UniProt:P09936
assigned-class: inactive
//
compound: O=C(Cn1cccc(-c2nc(-c3ccccc3)no2)c1=O)Nc1ccccc1F
assayed-system: UniProt:P09936
assigned-class: inactive
//
compound: O=c1[nH]cccc1NS(=O)(=O)c1ccc(F)cc1
assayed-system: UniProt:P09936
assigned-class: inactive
//
compound: Cc1ccc(S(=O)(=O)NCc2ccc(C(=O)NCCc3ccc(S(N)(=O)=O)cc3)cc2)cc1
assayed-system: UniProt:P09936
assigned-class: inactive

----------
Examples of compounds with documented IC50 follow.
- assayed-system: UniProtKB P09936
- test-summary: biochemical concentration-response of UCH-L1 DUB inhibitors, hit verification (AID 1645867)
- particulars: recombinant UCHL1 deubiquitinase activity assay
The source made the active and inactive calls. How the calls were made is not given here.

compound: COc1cc(O)c2c(O)c3c(cc2c1)CC(C)OC3=O (centres undefined)
IC50: > 25 µM (inactive)
//
compound: COc1cn(-c2ccc(F)cc2)nc1C(=O)Nc1ccc(Cl)cc1Cl
IC50: 23.2 µM
//
compound: CC(=O)O[C@@H]1C(=O)C2=C(C(=O)C[C@H]3C(C)(C)C(=O)CC[C@]23C)[C@]2(C)C(=O)C[C@H]([C@H](C)CC(=O)C[C@@H](C)C(=O)O)[C@@]12C
IC50: > 25 µM (inactive)
//
compound: Cc1ccc(-n2cc(-c3noc(C(=O)Nc4ccc(F)cc4C)n3)nn2)cc1
IC50: > 25 µM (inactive)
//
compound: Cc1nn(-c2ccc(Cl)cc2)c2[nH]c(=O)c(CNc3ccc4c(c3)OCCO4)cc12
IC50: > 25 µM (inactive)
//
compound: Cc1cccc(NC(=O)N2C[C@@H]3c4nccn4-c4ccccc4[C@@H]3C2)c1
IC50: > 25 µM (inactive)
//
compound: Cc1cc(C(=O)NC2(O)C(=O)c3ccccc3C2=O)n(C)n1
IC50: 20.6 µM
//
compound: N#CCCN(C(=O)c1cc2c(s1)-c1ccccc1OC2)c1ccccc1
IC50: > 25 µM (inactive)
//
compound: Cc1ncc(CO)c2c1Oc1nc(-c3cccc(Cl)c3)nc(SCC(=O)N3CCCCC3)c1C2
IC50: > 25 µM (inactive)
//
compound: CN(C)[C@@H]1C(=O)C(C(N)=O)=C(O)[C@@]2(O)C(=O)C3=C(O)c4c(O)cccc4[C@@](C)(O)[C@H]3C[C@@H]12
IC50: > 25 µM (inactive)
//
compound: N#Cc1ccc(COC(=O)C(O)(c2ccccc2)c2ccccc2)cc1
IC50: > 25 µM (inactive)
//
compound: CC1OC2CC(=O)OC2C2=C1C(=O)c1c(O)cccc1C2=O (centres undefined)
IC50: > 25 µM (inactive)
//
compound: Cc1ccc(C2CN3C(=O)CN(C4CC4)C(=O)[C@]3(C)c3[nH]c4ccccc4c32)cc1 (some centres undefined)
IC50: > 25 µM (inactive)
//
compound: CC(NC(=O)c1ccccc1)c1nc2ccccc2n1CC(=O)Nc1ccc2c(c1)OCO2 (centres undefined)
IC50: > 25 µM (inactive)
//
compound: O=C(COc1ccc(N2CC(C(=O)NCc3ccc4c(c3)OCO4)CC2=O)cc1)Nc1ccc(F)cc1 (centres undefined)
IC50: > 25 µM (inactive)
//
compound: O=C(Nc1cnc(-c2cccc(Cl)c2)nc1)C1CCC1
IC50: > 25 µM (inactive)
//
compound: O=C(NCC(c1cccnc1)N1CCOCC1)C1CCCCC1 (centres undefined)
IC50: > 25 µM (inactive)
//
compound: Cn1nc(Cl)c(Cl)c1Oc1ccc(S(=O)(=O)Nc2ccc(Oc3ccc(C(F)(F)F)cn3)c(Cl)c2)cc1
IC50: > 25 µM (inactive)
//
compound: O=C(Nc1cccc(F)c1)N1C[C@@H]2c3nccn3-c3ccccc3[C@@H]2C1
IC50: > 25 µM (inactive)
//
compound: CCOc1ccc(NC(=O)Cn2c(=O)n(CCCCCC(=O)NCc3ccc(F)cc3)c(=O)c3sccc32)cc1
IC50: > 25 µM (inactive)
//
compound: O=C(Cn1c(COc2ccccc2)nc2ccccc21)Nc1cc(Cl)cc(Cl)c1
IC50: > 25 µM (inactive)
//
compound: COc1ccc(CC(=O)Nc2c(NCc3ccccc3)c3ccccc3oc2=O)cc1
IC50: > 25 µM (inactive)
//
compound: O=C(Cn1nc2c3c4c(sc3ncn2c1=O)CCCCC4)Nc1ccc(Cl)cc1F
IC50: > 25 µM (inactive)
//
compound: CN(Cc1ccccc1)S(=O)(=O)c1ccc2[nH]c(=O)[nH]c2c1
IC50: > 25 µM (inactive)
//
compound: Cc1cc(NC(=O)c2cc(-c3cccnc3)n[nH]2)ccc1Br
IC50: > 25 µM (inactive)
//
compound: COc1cccc2cc(C(=O)Nc3nc(-c4ccncc4)cs3)oc12
IC50: > 25 µM (inactive)
//
compound: O=C(CN1CCOCC1)Nc1ccc(NC(=O)c2ccc(Cl)cc2)cc1
IC50: > 25 µM (inactive)
//
compound: COc1ccc(CCN2COc3c(cc(Cl)c4cccnc34)C2)cc1OC
IC50: > 25 µM (inactive)
//
compound: Cc1ccc(NC(=O)Nc2ccc(C)n(CC(=O)Nc3ccc(C)c(C)c3)c2=O)cc1
IC50: > 25 µM (inactive)
//
compound: O=C(NC1CC2(CCOCC2)Oc2ccccc21)c1cnccn1 (centres undefined)
IC50: > 25 µM (inactive)
//
compound: O=C(CCc1nc2sc3c(c2c(=O)[nH]1)CCCCC3)Nc1ccc(F)cc1F
IC50: > 25 µM (inactive)
//
compound: Cc1nn(-c2ccccc2)c(C)c1S(=O)(=O)N1CCN(c2ccccn2)CC1
IC50: > 25 µM (inactive)
//
compound: CC(c1ccccc1)N1CC(O)=C(c2nc3ccccc3s2)C1=N (centres undefined)
IC50: > 25 µM (inactive)
//
compound: Oc1cccc2c(-c3ccc(O)c4c(O)cccc34)ccc(O)c12
IC50: 10.7 µM
//
compound: O=C(Cc1c[nH]c2ccccc12)N1CCc2cc(-c3ccno3)ccc21
IC50: > 25 µM (inactive)
//
compound: CC1O[C@@H](c2ccc3c(c2O)C(=O)C2=C(C3=O)[C@@]3(O)C(=O)C(O)[C@](C)(O)C[C@@]3(O)C=C2)CC[C@@H]1OC(=O)/C=C/C=C/C=C/[C@@H]1O[C@@](C)(C(=O)O)O[C@H]1C (some centres undefined)
IC50: 4.57 µM
//
compound: CCOc1ccc(-n2ccnc(SCC(=O)Nc3ccccc3Cl)c2=O)cc1
IC50: > 25 µM (inactive)
//
compound: O=C(COC(=O)c1cnccn1)Nc1ccc(Cl)cc1C(=O)c1ccccc1
IC50: > 25 µM (inactive)
//
compound: c1ccc(-c2ccc(NCc3ccc4c(c3)OCO4)nn2)cc1
IC50: > 25 µM (inactive)

Values compiled from PubChem BioAssay AID1645867.
